Entries annotated with measured EC50
target-entity: T1, native human CD30L expressed on Ramos cells (human, UniProt P32971 1-234)
T1 construct: It is used here for the native protein on human B cell lines; also called huCD30L; Native huCD30L
T1 sequence: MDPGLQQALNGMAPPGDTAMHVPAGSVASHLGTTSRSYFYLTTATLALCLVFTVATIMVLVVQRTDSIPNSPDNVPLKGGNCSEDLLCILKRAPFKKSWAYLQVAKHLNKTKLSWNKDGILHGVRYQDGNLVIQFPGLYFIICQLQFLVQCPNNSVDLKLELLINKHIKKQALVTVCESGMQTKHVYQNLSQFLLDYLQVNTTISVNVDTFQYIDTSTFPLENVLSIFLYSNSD
assay-overview: FACS, native human CD30L on Ramos cells

binder	EC50
Antibody F (antibody, V domains shown, also called mAb F) VH: QVQLQESGPGLVKPSETLSLTCTVSGGSISSYYWSWIRQPAGKGLEWIGRIFASGSTNYNPSLRSRVTMSRDTSKNQFSLKLSSVTAADTAVYYCAKERVGVQDYYHYSGMDVWGQGTTVTVSS VL: QSALTQPASVSGSPGQSITISCTGTSSDVGLYNYVSWYQQQPGKAPKLMIYEVSKRPSGVSNRFSGSTSGNTASLTISGLQADDEADYSCSSYTSSSTWVFGGGTKLTVL	2.3 nM
Antibody D (antibody, V domains shown, also called mAb D) VH: QVQLQESGPGLVKPSETLSLTCTVSGGSISSYSWSWIRQPAGKGLEWIGRTSTSGRNNYNPSLKSRVTMSVDTSKNQFSLKLNSVTAADTAVYYCARDFTIAARRYYYYGMDVWGQGTTVTVSS VL: QSALTQPASVSGSPGQSITISCTGTSSDIGLYNYVSWYQQHPGKAPKLIIYEVINRPSGVSNRFSGSESGNTASLTISGLQAEDEANYYCSSYTSSSTWVFGGGTKLTVL	3.3 nM
Antibody C (antibody, V domains shown, also called mAb C) VH: QVQLQESGPGLVKPSETLSLTCTVSGGSISSYYWTWIRQPAGKGLEWIGRIYTSGITNYNPSLKSRVTMSVDTSKNQFSLKLSSVTAADTAVYYCARERVVGASRYYYYGVDVWGQGTTVTVSS VL: QSALTQPASVSGSPGQSITISCTGTSSDIGLYDYVSWYQQHPDRAPKLIIFEVNNRPSGVSYRFSGSNSGNTASLTISGLQAEDEADYYCSSYTSSSTWVFGGGTKLTVL	1.7 nM
Antibody A (antibody, V domains shown, Human antibody (XenoMouse); also called mAb A; anti-hCD30L A) VH: QVQLQESGPGLVKPSETLSLTCTVSGGSISSYIWSWIRQPAGKGLEWIGRIYASGNTNYNPSLKSRVTMSVDTSKNQFSLKLSSMTAADTAVYYCARDYRVAGTYYYYYGLDVWGQGTTVTVSS VL: QSALTQPASVSGSPGQSITISCTGTSSDVGVYDYVSWYQQHPGKAPKLMIYEVSNRPSGVSNRFSGSKSGNTASLTISGLQTEDEADYYCSSYTSRSTWVFGGGTKLTVL	1.7 nM
Antibody B (antibody, V domains shown, also called mAb B) VH: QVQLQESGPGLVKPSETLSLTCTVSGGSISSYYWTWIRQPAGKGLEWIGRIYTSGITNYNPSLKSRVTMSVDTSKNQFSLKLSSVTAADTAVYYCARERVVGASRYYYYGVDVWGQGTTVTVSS VL: QSALTQPASVSGSPGQSITISCTGTSSDVGLYNYVSWYQQHPDKAPKLMIFEVNNRPSGVSNRFSGSNSGNTASLTISGLQAEDEADYYCSSYTSSSTWVFGGGTKLTVL	3.1 nM
Antibody E (antibody, V domains shown, also called mAb E) VH: QVQLQESGPRLVKPSETLSLTCTVSGGSITNNYWSWIRQPAGKGLEWIGRVYSSGLTNYKPSLKSRVTMSVDTSKNQFSLRLNSVTAADTAVYYCARERATVTTRYHYDGMDVWGQGTSVTVSS VL: QSALTQPASVSGSPGQSITISCTGSSSDIGTYNYVSWYQQYPGKAPELMIYEVNNRPSGVSDRFSGSTSGNTASLTISGLQANDEADYYCSSYSSSSTWVFGGGTKLTVL	3.3 nM
